protocol_details: yeast display, Sf9 membrane polyspecificity reagent, FACS + sequencing; frameworks hold sequencing errors
endpoint: polyreactivity (PSR sort gate)

monomer_sequence | observed_value
QFQLVESVGGLFQAGGSLRLSCDASGIIFIGNAMGWYRQAPGKERELVAAISRRGGRTYYADSVKGRFTISRDNAKNTVYLQMNSLKPEDTAVYYCAKRYYSYGKSGYYYWGQGTQVTVSS | high polyreactivity
QVQLVESGGCLVQAGGSLRLIWDASGSIFKRYAMGWYRQAPGKERELVAAISYSGGSTYYADSVKGRFTISRDNAKNTVYLQMNSLKPEDTAVYYCAKRSTSRGYDYWGQGTQVTLSS | high polyreactivity
